Provenance of the data: patent US6552073B1

Measured melting point by item
test-readout: melting point

1) O=C(O)c1cc(=O)c(OCCCCOc2ccc(Cl)c(Cl)c2)co1	182 to 183 °C
2) O=C(O)c1cc(=O)c(OCCCCCOc2ccc(Cl)c(Cl)c2)co1	159 to 161 °C
3) C/C=C/c1oc(CO)cc(=O)c1OCCCCCOc1ccc(Cl)c(Cl)c1	100 to 101 °C
4) CCCc1cc(Cl)c(Cl)cc1OCCCCCOc1coc(CO)cc1=O	83 to 84 °C
5) C/C=C/c1oc(C(=O)O)cc(=O)c1OCCCCCOc1ccc(Cl)c(Cl)c1CCC	161 to 162 °C
6) O=C(NCc1ccccc1)c1cc(=O)c(OCCCCCOc2ccc(Cl)cc2)co1	125 to 126 °C
7) C/C=C/c1oc(C(=O)O)cc(=O)c1OCCCCCOc1ccccc1CCC	145 to 146 °C
8) C/C=C/c1oc(C(=O)O)cc(=O)c1OCCCCCOc1ccc(Cl)c(Cl)c1	118 to 119 °C
9) O=c1cc(COCc2ccccc2)occ1OCCCCCOc1ccc(Cl)c(Cl)c1	82 to 83 °C

----------
Measured melting point by item
test-readout: melting point

1. CCOc1ccccc1OCCCCCOc1coc(C(=O)O)cc1=O	141 to 142 °C
2. CCCc1c(OCCCCCCCOc2coc(CO)cc2=O)ccc(Cl)c1Cl	62 to 64 °C
3. C/C=C/c1oc(CO)cc(=O)c1OCCCCCOc1cccc(Cl)c1	50 to 51 °C
4. O=c1cc(CO)occ1OCCCCCOc1cccc(Cl)c1	87 to 88 °C
5. O=c1cc(CO)occ1OCCCCCOc1ccc(Cl)c(Cl)c1	97 to 99 °C

----------
test-readout: melting point

1. CCCc1ccccc1OCCCCCOc1coc(C(=O)O)cc1=O	145 to 146 °C
2. O=c1cc(CO)occ1OCCCCOc1ccc(Cl)c(Cl)c1	107 to 108 °C
3. C/C=C/c1oc(CO)cc(=O)c1OCCCCCOc1ccc(Cl)cc1	84 to 85 °C
4. CCCc1c(OCCCCCOc2coc(C(=O)O)cc2=O)ccc(Cl)c1Cl	155 to 156 °C
5. C/C=C/c1oc(C(=O)O)cc(=O)c1OCCCCCOc1cccc(Cl)c1	116 to 117 °C

----------
Measured melting point by item
test-readout: melting point

1) CCOc1ccccc1OCCCCCOc1coc(CO)cc1=O	75 to 76 °C
2) O=C(O)c1cc(=O)c(OCCCCCOc2ccc(Cl)cc2)co1	154 to 156 °C
3) C/C=C/c1oc(C(=O)O)cc(=O)c1OCCCCCOc1ccc(Cl)cc1	136 to 137 °C
4) CCCc1c(OCCCCCCOc2coc(CO)cc2=O)ccc(Cl)c1Cl	86 to 87 °C
5) C/C=C/c1oc(CO)cc(=O)c1OCCCCCOc1ccc(Cl)c(Cl)c1CCC	75 to 76 °C
6) C/C=C/c1oc(CO)cc(=O)c1OCCCCCOc1ccccc1CCC	67 to 68 °C
7) CCCc1c(OCCCCCOc2coc(CO)cc2=O)ccc(Cl)c1Cl	85 to 86 °C
8) O=C(O)c1cc(=O)c(OCCCCCOc2cccc(Cl)c2)co1	160 to 161 °C
